// inhibition lookup, one value per entry
method_notes: inhibitors of HIV fusion peptide binding, primary screen, biochemical, uHTS, fluorescence dequenching (AID 1986)
condition_parameters: cell-free peptide binding, 30 min, measured here: repeat confirmation average inhibition, at 18.6 µM, stronger effect = higher value
Out of some 290,000 compounds screened, about 890 (0.31%) were called active. The list comes from a sample in which actives are over-represented; it also holds close analogues and randomly drawn compounds.
Report as a plain number; the unit % is understood.

Use the examples below as a reference point.
>>> df
                                   molecule  observed
0  O=C1NC(=Nc2ccccc2Cl)S/C1=C\c1cccc([N+](=O)[O-])c1      29.4
1  O=C(NN1C(=O)/C(=C/C=C/c2ccco2)SC1=S)c1ccccc1O      46.4

Supply reported inhibition belonging to this molecule: CC(C)C(C(=O)O)N1C(=O)/C(=C/C=C/c2ccco2)SC1=S (stereo unspecified)
36.6

Supply reported inhibition belonging to this molecule: Oc1ccc2nnc3c(Br)cnn3c2c1
59.6

Supply reported inhibition belonging to this molecule: N#Cc1cc(C(=O)c2ccccc2O)cn(-c2nccs2)c1=O
99.4

Supply reported inhibition belonging to this molecule: O=C(O)CC(C(=O)O)N1C(=O)/C(=C/C=C/c2ccco2)SC1=S (stereo unspecified)
23.1

Supply reported inhibition belonging to this molecule: O=C(N/N=C/c1cc(Br)cc(Br)c1O)c1cccc(S(=O)(=O)N2CCOCC2)c1
53.2

Supply reported inhibition belonging to this molecule: CCOC(=O)c1c(-c2ccccc2)csc1NC(=O)/C(C#N)=C/c1ccc(O)c(OC)c1
53.4

Supply reported inhibition belonging to this molecule: O=C(O)CCCN1C(=O)/C(=C\c2ccco2)SC1=S
3.5

----------
// inhibition lookup, one value per entry
method_notes: inhibitors of HIV fusion peptide binding, primary screen, biochemical, uHTS, fluorescence dequenching (AID 1986)
condition_parameters: cell-free peptide binding, 30 min, at 20 µM, stronger effect = higher value
Among all 290,000 compounds or so, about 890 (0.31%) were called active. For the sample, actives were picked, then their nearest neighbours and some compounds at random.

In [3]: df
Out[3]:
                                   compound          observed
0  CC(N=C(NS(=O)(=O)c1ccc(Cl)cc1)c1ccccc1)C(=O)O (stereo not given)  -0.1% (inactive)
1   CN(CC(=O)Nc1ccc(F)c(F)c1F)c1ncnc2sccc12   0.3% (inactive)
2  COc1ccc(Cl)cc1Nc1nc(C)nc2c1nnn2Cc1ccccc1    -1% (inactive)
3  COc1ccccc1C(NC(C)=O)c1cc(Cl)c2cccnc2c1O (stereo not given)  -2.4% (inactive)
4  CC1(C)CCCC2=C1CC1C(=O)N(Cc3cccnc3)C(=O)C1C2 (stereo not given)   1.5% (inactive)

Proceeding to the next compound to report its inhibition.
Supply reported inhibition belonging to this compound: Cc1ccc(NC(=O)c2cc([N+](=O)[O-])ccc2NCc2cccnc2)cc1
-0.6% (inactive)

----------
// inhibition lookup, one value per entry
method_notes: inhibitors of HIV fusion peptide binding, primary screen, biochemical, uHTS, fluorescence dequenching (AID 1986)
condition_parameters: cell-free peptide binding, 30 min, at 20 µM, stronger effect = higher value
Out of some 290,000 compounds screened, about 890 (0.31%) were called active. The list comes from a sample in which actives are over-represented; it also holds close analogues and randomly drawn compounds.
Report as a plain number; the unit % is understood.

Use the examples below as a reference point.
>>> df
                                   molecule  measured_parameter  observed
0  COc1cc(NC(=O)C2CC(=O)NC3=C2C(=O)CCC3)c(OC)cc1Cl (stereo not given)          inhibition      -1.9
1        CC(C)OC(=O)CSc1nc(C(C)C)nc2ccccc12          inhibition       1.3
2  COc1ccc(/C=C2/N=C(c3cccs3)OC2=O)cc1OC(C)C          inhibition       106
3   O=C(Nc1cccc(C(=O)N2CCCCC2)c1)c1ccccc1Br          inhibition      -1.4
4  COC/C=C/C1=CC2=CC(=O)C(C)(OC(=O)c3ccco3)C(=O)C2=CO1 (stereo not given)          inhibition        51
5  CCn1c(SCC(=O)Nc2cc(C)on2)nnc1-c1ccc(S(=O)(=O)N2CCN(C)CC2)cc1          inhibition      -2.9

Supply reported inhibition belonging to this molecule: O=c1[nH]c2c(cc1CNCCN1CCOCC1)c(-c1cccc(F)c1)nn2-c1ccccc1
-1.4

Supply reported inhibition belonging to this molecule: O=C(NC1CCCC1)C(c1ccncc1)N(C(=O)c1csnn1)c1ccc(F)cc1 (stereo not given)
0.5

Supply reported inhibition belonging to this molecule: CCOc1ccc(/C=C2\N=C(c3cccs3)OC2=O)cc1OC
6.4

Supply reported inhibition belonging to this molecule: CCCCCC(=O)NC(=S)Nc1ccc2oc(=O)ccc2c1
-0.3

----------
method_notes: inhibitors of HIV fusion peptide binding, primary screen, biochemical, uHTS, fluorescence dequenching (AID 1986)
condition_parameters: cell-free peptide binding, 30 min, at 20 µM, stronger effect = higher value
In all, about 290,000 compounds went through this assay and about 890 (0.31%) were called active. The entries come from a sample that favours actives as a whole.
// inhibition lookup, one value per entry
Report as a plain number; the unit % is understood.

Use the examples below as a reference point.
                                   compound  scale_unit  observed
0  O=C(O)c1cccc(-n2c(O)c(C=C3N=c4ccccc4=N3)sc2=S)c1           %      32.8
1             Cc1ccc(CNCc2ccc3c(c2)OCO3)cc1           %       2.9
2  N#CC1=C(N)OC2=C(CC/C2=C\c2ccc(F)cc2)C1c1ccc(F)cc1 (stereo not given)           %      73.8
3            CCc1oc2ccccc2c1C(=O)CCN1CCCCC1           %      -3.9
4  NS(=O)(=O)c1ccc(-c2ccc(C=C3C(=O)c4ccccc4C3=O)o2)cc1           %       1.7

Supply reported inhibition belonging to this compound: CCc1ccc(-n2cccc2/C=C2/C(=N)N3C(=NC2=O)SN=C3S(C)(=O)=O)cc1
74.8

Supply reported inhibition belonging to this compound: CCOC(=O)c1nnn(-c2nonc2N)c1CN1CCCC1
-0.2

Supply reported inhibition belonging to this compound: O=C1C(c2cc(=O)c3ccccc3[nH]2)=C(O)c2ccccc21
-2.1

Supply reported inhibition belonging to this compound: COc1ccc(OC)c(N=Cc2c(O)c3ccccc3oc2=O)c1
37.7

Supply reported inhibition belonging to this compound: CCOC(=O)c1c(O)c2ccccc2oc1=O
-0.2

----------
method_notes: inhibitors of HIV fusion peptide binding, primary screen, biochemical, uHTS, fluorescence dequenching (AID 1986)
condition_parameters: cell-free peptide binding, 30 min, at 20 µM, stronger effect = higher value
The whole screen tested about 290,000 compounds, of which about 890 (0.31%) were called active. Many of the other results were omitted from the sample, so actives are more common in it than they were.
measured_parameter: inhibition (%)
Report as a plain number; the unit % is understood.

>>> df
                                   compound  observed
0  CCN(CC)C(=O)CSc1nc(O)c(Cc2ccc(OC)cc2)c(=O)[nH]1       0.3

Supply reported inhibition belonging to this compound: O=C1NC(=S)/C(=C\c2ccc(-c3ccccc3Cl)o2)S1
70.7

Supply reported inhibition belonging to this compound: O=C(O)C(c1ccccc1)N1C(=O)/C(=C/c2cccs2)SC1=S (stereo unspecified)
14.3

----------
method_notes: inhibitors of HIV fusion peptide binding, primary screen, biochemical, uHTS, fluorescence dequenching (AID 1986)
condition_parameters: cell-free peptide binding, 30 min, at 20 µM
Out of some 290,000 compounds screened, about 890 (0.31%) were called active. No stated cut-off is given here; in the data, active means inhibition mostly above about 52% (no sharp cut-off); inactive means mostly below about 76%. This excerpt belongs to a sample that is enriched for actives.
Respond using exactly one of the listed classes: Y = active, N = inactive

Solved entries (count: 5):
In [3]: df
Out[3]:
                                   compound  classification
0  CC(C)N1C(=O)S/C(=C\c2ccc(-c3ccc(Cl)c(C(=O)O)c3)o2)C1=O               N
1      O=C(CSc1n[nH]c(=O)[nH]c1=O)NC1CCCCC1               N
2            O=C1C(=Cc2ccco2)C(=O)c2ccccc21               N
3         COc1ccc2c(c1)CC/C(=C/c1ccco1)C2=O               N
4  CCN(CC)c1ccc(/C=C2/SC(=O)N(C(C)C)C2=O)o1               N

Which outcome was assigned to Cc1cc(Nc2ccccc2)n(C(=O)c2ccccc2)n1 in this test?
N

Which outcome was assigned to O=C1/C(=C/c2ccco2)Cc2ccccc21 in this test?
N

Which outcome was assigned to Nc1ccc2c(c1)C/C(=C/c1ccco1)C2=O in this test?
Y

Which outcome was assigned to O=C1/C(=C/c2ccco2)CCc2ccccc21 in this test?
Y

Which outcome was assigned to O=C(N/N=C/c1cc(Br)cc(Br)c1O)c1ccncc1 in this test?
Y

Which outcome was assigned to CCN(CC)c1ccc(/C=C2\SC(=O)N(C(C)C)C2=O)o1 in this test?
Y

Which outcome was assigned to O=C(CNC(=O)c1ccccc1F)NC1CC1 in this test?
N
